FYI, the data here is from patent US20090117199A1.

- experiment: Partitioning coefficient of Rose Bengal, saline/1-octanol, effect of electrolyte concentration
- applied conditions: Partitioning coefficient (Kp), 2.50% saline, 0.5 mg/mL RB, approx. 1 day
result type: Kp

>>> observed("O=C([O-])c1c(Cl)c(Cl)c(Cl)c(Cl)c1-c1c2cc(I)c(=O)c(I)c-2oc2c(I)c([O-])c(I)cc12.[Na+].[Na+]")
215

* * *

- experiment: Partitioning coefficient of Rose Bengal, saline/1-octanol, effect of electrolyte concentration
- applied conditions: Partitioning coefficient (Kp), 0.50% saline, 0.5 mg/mL RB, approx. 1 day
result type: Kp

>>> observed("O=C([O-])c1c(Cl)c(Cl)c(Cl)c(Cl)c1-c1c2cc(I)c(=O)c(I)c-2oc2c(I)c([O-])c(I)cc12.[Na+].[Na+]")
20.8

* * *

- experiment: Partitioning coefficient of Rose Bengal, saline/1-octanol, effect of electrolyte concentration
- applied conditions: Partitioning coefficient (Kp), 0.00% saline, 0.5 mg/mL RB, approx. 1 day
result type: Kp

>>> observed("O=C([O-])c1c(Cl)c(Cl)c(Cl)c(Cl)c1-c1c2cc(I)c(=O)c(I)c-2oc2c(I)c([O-])c(I)cc12.[Na+].[Na+] [RB]")
3.14

* * *

- experiment: Partitioning coefficient of Rose Bengal, saline/1-octanol, effect of electrolyte concentration
- applied conditions: Partitioning coefficient (Kp), […] saline, 0.5 mg/mL RB, approx. 1 day
result type: Kp

>>> observed("O=C([O-])c1c(Cl)c(Cl)c(Cl)c(Cl)c1-c1c2cc(I)c(=O)c(I)c-2oc2c(I)c([O-])c(I)cc12.[Na+].[Na+]")
44.2

* * *

- experiment: Kp of RB with and without phosphate buffer
- Format: physicochemical
- applied conditions: phosphate buffered saline, pH 7.4
result type: Kp

>>> observed("O=C([O-])c1c(Cl)c(Cl)c(Cl)c(Cl)c1-c1c2cc(I)c(=O)c(I)c-2oc2c(I)c([O-])c(I)cc12.[Na+].[Na+] [RB]")
11.5

* * *

- experiment: Partitioning coefficient of RB, 1-octanol/0.9% saline, effect of pH
result type: solubility (µg/mL)

>>> observed("O=C([O-])c1c(Cl)c(Cl)c(Cl)c(Cl)c1-c1c2cc(I)c(=O)c(I)c-2oc2c(I)c([O-])c(I)cc12.[Na+].[Na+] [RB]")
195
